Record form. Attribute: Emax. Fill in for each entry.
- target.under.test: hAT1R (Homo sapiens, UniProt P30556)
- Sequence (P30556 whole entry): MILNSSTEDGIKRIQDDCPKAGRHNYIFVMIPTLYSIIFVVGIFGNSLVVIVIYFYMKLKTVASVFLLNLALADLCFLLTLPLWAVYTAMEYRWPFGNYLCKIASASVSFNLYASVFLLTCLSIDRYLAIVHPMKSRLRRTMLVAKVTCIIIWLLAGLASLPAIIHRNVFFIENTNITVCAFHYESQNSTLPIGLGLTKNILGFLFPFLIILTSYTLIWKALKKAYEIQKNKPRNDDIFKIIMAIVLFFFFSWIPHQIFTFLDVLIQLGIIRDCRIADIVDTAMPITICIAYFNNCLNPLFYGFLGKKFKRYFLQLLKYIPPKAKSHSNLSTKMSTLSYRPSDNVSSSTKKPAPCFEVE
- experimental.protocol: FLIPR calcium flux assay, Part II: antagonist activity against Angiotensin II; further: Angiotensin II 10 nM final concentration
- Assay type: cell-based
- experimental.parameters: read-out: hAT1R Antagonist Efficacy Antag (%) Ave
Residues, ends and D or L forms follow the SMILES beside them.
Respond numerically; units are % and should not be typed.

Prompt: Which Emax is listed for CNCC(=O)N[C@@H](CCCNC(=N)N)C(=O)N[C@H](C(=O)N[C@@H](Cc1ccc(O)cc1)C(=O)N[C@H](C(=O)N[C@@H](Cc1c[nH]cn1)C(=O)N1CCC[C@H]1C(=O)N[C@H](Cc1csc2ccccc12)C(=O)O)C(C)C)C(C)C [Compound 10] (HELM PEPTIDE1{[Sar].R.V.Y.V.H.P.[O=C(O)[C@@H](Cc1csc2ccccc12)N[*:1]]}$$$$V2.0) ?
Completion: 99

Prompt: # query: Emax of entry CNCC(=O)N[C@@H](CCCNC(=N)N)C(=O)N[C@H](C(=O)N[C@@H](Cc1ccc(O)cc1)C(=O)N[C@@H](Cc1ccc(N)cc1)C(=O)N[C@@H](Cc1c[nH]cn1)C(=O)N1CCC[C@H]1C(=O)N[C@H](Cc1cccc2ccccc12)C(=O)O)C(C)C [Compound 13, Sar-Arg-Val-Tyr-Aph-His-Pro-(D-1Nal)-OH] (HELM PEPTIDE1{[Sar].R.V.Y.[Nc1ccc(C[C@H](N[*:1])C(=O)[*:2])cc1].H.P.[O=C(O)[C@@H](Cc1cccc2ccccc12)N[*:1]]}$$$$V2.0)
Completion: 100

###

- target.under.test: hAT1R (Homo sapiens, UniProt P30556)
- experimental.protocol: FLIPR calcium flux assay, Part I: agonist activity
- Type: cell-based
- experimental.parameters: ChanTest hAT1R stable cells; % MPE, percent of the maximal possible effect; read-out: hAT1R Agonist Efficacy Agonist (%) Ave
Starred links: 1 amine or outer side, 2 acyl side, 3 side chain; linkers in the order of their positions; H or OH if unused. Non-standard residues stand in square brackets, D forms with d. Residues, ends and D or L forms follow the SMILES beside them. X1 = O=C(CN(C[C@H](O)[C@@H](O)[C@H](O)[C@H](O)CO)[*:1])[*:2]; dPhe(2-Ph) = N[C@H](Cc1ccccc1-c1ccccc1)C(=O)O; Chg = N[C@H](C(=O)O)C1CCCCC1
// assign 1 (yes) if Emax falls strictly below 6%, else 0 (no) (ties count as 0 (no))

Prompt: Answer whether the compound CNCC(=O)N[C@@H](CCCNC(=N)N)C(=O)N[C@H](C(=O)N[C@@H](Cc1ccc(O)cc1)C(=O)N[C@H](C(=O)N[C@@H](Cc1c[nH]cn1)C(=O)N1CCC[C@H]1C(=O)N[C@H](Cc1ccccc1-c1ccccc1)C(=O)O)C1CCCCC1)C(C)C [Compound 36] (HELM PEPTIDE1{[Sar].R.V.Y.[O=C([C@@H](N[*:1])C1CCCCC1)[*:2]].H.P.[O=C(O)[C@@H](Cc1ccccc1-c1ccccc1)N[*:1]]}$$$$V2.0) has Emax strictly less than 6%
Completion: 0 (no)

Prompt: Answer whether the compound CNCC(=O)N[C@@H](CCCNC(=N)N)C(=O)N[C@H](C(=O)N[C@@H](Cc1ccc(O)cc1)C(=O)N[C@@H](Cc1ccc(N)cc1)C(=O)N[C@@H](Cc1c[nH]cn1)C(=O)N1CCC[C@H]1C(=O)N[C@H](Cc1cccc2ccccc12)C(=O)O)C(C)C [Compound 13, Sar-Arg-Val-Tyr-Aph-His-Pro-(D-1Nal)-OH] (HELM PEPTIDE1{[Sar].R.V.Y.[Nc1ccc(C[C@H](N[*:1])C(=O)[*:2])cc1].H.P.[O=C(O)[C@@H](Cc1cccc2ccccc12)N[*:1]]}$$$$V2.0) has Emax strictly less than 6%
Completion: 0 (no)

Prompt: Is Emax strictly under 6% for the entry CNCC(=O)N[C@@H](CCCNC(=N)N)C(=O)N[C@H](C(=O)N[C@@H](Cc1ccc(O)c(O)c1)C(=O)N[C@H](C(=O)N[C@@H](Cc1c[nH]cn1)C(=O)N1CCC[C@H]1C(=O)N[C@H](Cc1ccccc1Cl)C(=O)O)C(C)C)C(C)C [Compound 32] (HELM PEPTIDE1{[Sar].R.V.[O=C([C@H](Cc1ccc(O)c(O)c1)N[*:1])[*:2]].V.H.P.[O=C(O)[C@@H](Cc1ccccc1Cl)N[*:1]]}$$$$V2.0) ?
Completion: 1 (yes)

Prompt: Hi there! Is Emax for CNCC(=O)N[C@@H](CCCNC(=N)N)C(=O)N[C@H](C(=O)N[C@@H](Cc1ccc(O)cc1)C(=O)N[C@@H](Cc1ccsc1)C(=O)N[C@@H](Cc1c[nH]cn1)C(=O)N1CCC[C@H]1C(=O)N[C@H](Cc1ccccc1Cl)C(=O)O)C(C)C [Compound 22] (HELM PEPTIDE1{[Sar].R.V.Y.[O=C([C@H](Cc1ccsc1)N[*:1])[*:2]].H.P.[O=C(O)[C@@H](Cc1ccccc1Cl)N[*:1]]}$$$$V2.0) below 6%, do you know?
Completion: 1 (yes)

Prompt: hey, is Emax for CNCC(=O)N[C@@H](CCCNC(=N)N)C(=O)N[C@H](C(=O)N[C@@H](Cc1ccc(O)cc1)C(=O)N[C@H](C(=O)N[C@@H](Cc1c[nH]cn1)C(=O)N1CCC[C@H]1C(=O)N[C@H](Cc1ccccc1C#N)C(=O)O)C(C)C)C(C)C [Compound 5] (HELM PEPTIDE1{[Sar].R.V.Y.V.H.P.[N#Cc1ccccc1C[C@@H](N[*:1])C(=O)O]}$$$$V2.0) lower than 6% or not?
Completion: 1 (yes)

Prompt: Decide: Emax of CNCC(=O)N[C@@H](CCCNC(=N)N)C(=O)N[C@H](C(=O)N[C@@H](Cc1ccc(O)cc1)C(=O)N[C@H](C(=O)N[C@@H](Cc1c[nH]cn1)C(=O)N1CCC[C@H]1C(=O)N[C@H](Cc1ccc(Cl)cc1Cl)C(=O)O)C(C)C)C(C)C [Compound 7] (HELM PEPTIDE1{[Sar].R.V.Y.V.H.P.[O=C(O)[C@@H](Cc1ccc(Cl)cc1Cl)N[*:1]]}$$$$V2.0) strictly below 6%?
Completion: 0 (no)

Prompt: Hello, is Emax of the following compound strictly smaller than 6%? CC(C)[C@H](NC(=O)[C@H](CCCNC(=N)N)NC(=O)CNC[C@H](O)[C@@H](O)[C@H](O)[C@H](O)CO)C(=O)N[C@@H](Cc1ccc(O)cc1)C(=O)N[C@H](C(=O)N[C@@H](Cc1c[nH]cn1)C(=O)N1CCC[C@H]1C(=O)N[C@H](Cc1ccccc1-c1ccccc1)C(=O)O)C1CCCCC1 [Compound 42] (H-[X1]RVY[Chg]HP[dPhe(2-Ph)]-OH)
Completion: 0 (no)
